Data provenance is ChEMBL document CHEMBL4020831.

Molecular target: BMX (Homo sapiens)
Sequence (P51813 whole entry): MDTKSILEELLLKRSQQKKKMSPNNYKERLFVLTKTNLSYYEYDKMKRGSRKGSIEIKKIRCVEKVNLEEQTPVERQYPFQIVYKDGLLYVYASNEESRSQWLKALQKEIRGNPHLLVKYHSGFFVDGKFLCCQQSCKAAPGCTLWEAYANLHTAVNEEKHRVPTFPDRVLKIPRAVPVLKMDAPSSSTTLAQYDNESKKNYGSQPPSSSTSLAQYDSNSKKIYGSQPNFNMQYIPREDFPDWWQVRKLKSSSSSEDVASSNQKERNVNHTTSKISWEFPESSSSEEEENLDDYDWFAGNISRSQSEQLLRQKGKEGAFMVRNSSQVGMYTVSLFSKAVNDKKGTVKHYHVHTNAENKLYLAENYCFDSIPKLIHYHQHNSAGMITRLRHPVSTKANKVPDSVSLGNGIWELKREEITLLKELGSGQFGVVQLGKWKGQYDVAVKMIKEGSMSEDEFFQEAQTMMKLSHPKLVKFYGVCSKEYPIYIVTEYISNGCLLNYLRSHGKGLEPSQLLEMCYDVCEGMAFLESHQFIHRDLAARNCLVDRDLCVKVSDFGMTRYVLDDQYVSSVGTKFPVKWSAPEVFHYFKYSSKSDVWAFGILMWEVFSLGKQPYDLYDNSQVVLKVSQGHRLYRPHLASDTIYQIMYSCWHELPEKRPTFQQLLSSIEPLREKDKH
Assay: Inhibition of cytoplasmic recombinant human full length His-tagged BMX expressed in baculovirus at 1 uM by Z'-LYTE assay
Assay Endpoint: inhibition at 1 µM

Molecule	Assay Endpoint	Result
Cc1c(-c2c(F)cc(C(N)=O)c3[nH]c4c(c23)CC[C@@H](C(C)(C)O)C4)cccc1-n1c(=O)c2cccc(F)c2n(C)c1=O	inhibition at 1 µM	80%
C=CC(=O)Nc1cccc(Nc2nc(Nc3ccc(OCCOC)cc3)ncc2F)c1 [SPEBRUTINIB]	inhibition at 1 µM	99%

###

Target: Cytochrome P450 1A2 (Homo sapiens, UniProt P05177)
Sequence (P05177 whole entry): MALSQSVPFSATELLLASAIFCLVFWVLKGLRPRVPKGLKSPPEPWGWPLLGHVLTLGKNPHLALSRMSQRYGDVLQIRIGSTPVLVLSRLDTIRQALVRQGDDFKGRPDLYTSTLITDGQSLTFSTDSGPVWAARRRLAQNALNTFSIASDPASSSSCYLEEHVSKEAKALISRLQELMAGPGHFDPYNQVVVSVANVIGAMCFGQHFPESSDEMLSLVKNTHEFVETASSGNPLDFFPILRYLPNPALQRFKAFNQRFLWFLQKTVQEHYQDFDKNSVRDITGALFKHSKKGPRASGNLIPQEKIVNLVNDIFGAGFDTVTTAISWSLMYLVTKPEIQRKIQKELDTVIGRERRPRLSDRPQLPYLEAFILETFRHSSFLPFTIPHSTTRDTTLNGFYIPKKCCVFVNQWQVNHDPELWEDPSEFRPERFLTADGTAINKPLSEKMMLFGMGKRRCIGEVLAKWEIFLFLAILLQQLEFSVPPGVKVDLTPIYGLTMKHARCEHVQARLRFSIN

Compound	Measurement Target	IC50
C[C@H]1CN(C2COC2)CCN1c1ccc(Nc2cc(-c3ccnc(N4CCn5c(cc6c5CC(C)(C)C6)C4=O)c3CO)cn(C)c2=O)nc1 [FENEBRUTINIB]	Cytochrome P450 1A2 (Homo sapiens, UniProt P05177)	> 5 µM

###

Biological target: ERBB2 (Homo sapiens)
Sequence (P04626 whole entry): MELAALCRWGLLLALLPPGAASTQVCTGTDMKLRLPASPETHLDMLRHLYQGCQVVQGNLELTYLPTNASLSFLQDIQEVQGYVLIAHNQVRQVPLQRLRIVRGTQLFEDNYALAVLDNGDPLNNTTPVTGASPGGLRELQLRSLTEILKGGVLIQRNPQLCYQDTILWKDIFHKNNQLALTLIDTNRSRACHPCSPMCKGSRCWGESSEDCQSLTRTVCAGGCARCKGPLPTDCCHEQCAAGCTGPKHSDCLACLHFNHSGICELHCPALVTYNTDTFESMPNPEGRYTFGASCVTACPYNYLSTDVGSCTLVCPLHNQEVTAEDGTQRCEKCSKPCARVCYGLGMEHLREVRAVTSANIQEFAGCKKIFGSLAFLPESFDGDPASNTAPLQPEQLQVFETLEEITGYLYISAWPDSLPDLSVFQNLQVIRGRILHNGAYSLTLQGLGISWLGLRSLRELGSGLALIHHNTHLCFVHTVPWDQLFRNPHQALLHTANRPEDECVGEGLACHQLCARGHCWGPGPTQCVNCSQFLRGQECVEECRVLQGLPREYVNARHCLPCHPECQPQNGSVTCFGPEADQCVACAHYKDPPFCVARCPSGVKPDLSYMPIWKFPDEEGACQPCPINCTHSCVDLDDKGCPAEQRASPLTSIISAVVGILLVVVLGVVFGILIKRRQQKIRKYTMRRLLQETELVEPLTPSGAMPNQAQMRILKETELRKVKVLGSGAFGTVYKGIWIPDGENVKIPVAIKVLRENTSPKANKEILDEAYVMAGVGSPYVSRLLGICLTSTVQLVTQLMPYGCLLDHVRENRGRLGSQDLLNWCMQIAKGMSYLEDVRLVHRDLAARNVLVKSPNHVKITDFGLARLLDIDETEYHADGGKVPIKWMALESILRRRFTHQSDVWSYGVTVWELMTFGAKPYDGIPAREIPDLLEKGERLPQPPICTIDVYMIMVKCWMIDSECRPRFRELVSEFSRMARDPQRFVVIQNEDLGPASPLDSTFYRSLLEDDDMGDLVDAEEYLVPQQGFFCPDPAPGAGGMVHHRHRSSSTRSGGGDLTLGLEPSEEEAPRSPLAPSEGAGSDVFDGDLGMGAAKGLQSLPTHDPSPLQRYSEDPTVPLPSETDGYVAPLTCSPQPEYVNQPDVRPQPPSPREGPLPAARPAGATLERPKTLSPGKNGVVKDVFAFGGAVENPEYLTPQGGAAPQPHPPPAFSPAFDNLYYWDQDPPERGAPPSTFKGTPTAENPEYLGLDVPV
Assay: Inhibition of recombinant human cytoplasmic His-tagged ERBB2 expressed in baculovirus at 1 uM by Z'-LYTE assay
Readings of inhibition at 1 µM for the listed compounds
Assay Endpoint: inhibition at 1 µM (%)

Compound	Unit Spec	Quantitative Result
Cc1c(-c2c(F)cc(C(N)=O)c3[nH]c4c(c23)CC[C@@H](C(C)(C)O)C4)cccc1-n1c(=O)c2cccc(F)c2n(C)c1=O	%	1
C=CC(=O)N1CCC[C@@H](n2nc(-c3ccc(Oc4ccccc4)cc3)c3c(N)ncnc32)C1 [IBRUTINIB]	%	91
CC#CC(=O)N1CC[C@@H](n2c(=O)n(-c3ccc(Oc4ccccc4)cc3)c3c(N)ncnc32)C1 [TIRABRUTINIB]	%	7
CC#CC(=O)N1CCC[C@H]1c1nc(-c2ccc(C(=O)Nc3ccccn3)cc2)c2c(N)nccn12 [ACALABRUTINIB]	%	36
C=CC(=O)N1CCC(CNc2ncnc(N)c2-c2ccc(Oc3ccccc3)cc2)CC1 [EVOBRUTINIB]	%	1
C[C@H]1CN(C2COC2)CCN1c1ccc(Nc2cc(-c3ccnc(N4CCn5c(cc6c5CC(C)(C)C6)C4=O)c3CO)cn(C)c2=O)nc1 [FENEBRUTINIB]	%	-1
C=CC(=O)Nc1cccc(Nc2nc(Nc3ccc(OCCOC)cc3)ncc2F)c1 [SPEBRUTINIB]	%	6
